Measured Fab Binding, listed per entry.
# TARGET: recombinant human ATX beta isoform with N-terminal purification tag (human, UniProt Q13822 49-863)
# PROTOCOL TEXT: ELISA, Fab-His captured by anti-Fd, 5 nM biotinylated human ATX beta

These recorded examples may help you get a feel for the data.
Fab F144 (VH H149, VL L122) (Fab, V domains shown, Soluble Fab-His) VH: QVQLVQSGAEVKKPGSSVKVSCKASGGTFSSYGISWVRQAPGQGLEWMGGIIPIFGTANYAQKFQGRVTITADESTSTAYMELSSLRSEDTAVYYCAREDVNYISTYSEFDYWGQGTLVTVSS VL: EIVLTQSPGTLSLSPGERATLSCRASQSVRKSGLAWYQQKPGQAPRLLIYNASSRATGIPDRFSGSGSGTDFTLTISRLEPEDFAVYYCQQATKPPLTFGQGTKVEIK | 1.2e+06 relative chemiluminescence units
Fab F90 (VH H83, VL L83) (Fab, V domains shown, Soluble Fab-His) VH: QVQLVQSGAEVKKPGSSVKVSCKASGGTFSSYAISWVRQAPGQGLEWMGGIIPIFGTANYAQKFQGRVTITADESTSTAYMELSSLRSEDTAVYYCARGEANEVYPGLDYWGQGTLVTVSS VL: EIVLTQSPGTLSLSPGERATLSCRASQSVSKSALAWYQQKPGQAPRLLIYNASSRATGIPDRFSGSGSGTDFTLTISRLEPEDFAVYYCQQSNKDPLTFGQGTKVEIK | 1.7e+06 relative chemiluminescence units

Read the next record carefully.
// field: Fab Binding; key: Fab F130 (VH H129, VL L113) (Fab, V domains shown, Soluble Fab-His) VH: QVQLVQSGAEVKKPGSSVKVSCKASGGTFSSYAISWVRQAPGQGLEWMGGIIPIFGTANYAQKFQGRVTITADESTSTAYMELSSLRSEDTAVYYCARDHGYAYYSAFDYWGQGTLVTVSS VL: EIVLTQSPGTLSLSPGERATLSCRASQSVSSSYLAWYQQKPGQAPRLLIYGASSRATGIPDRFSGSGSGTDFTLTISRLEPEDFAVYYCQQSSRDPWTFGQGTKVEIK ; value = 2.2e+06 relative chemiluminescence units
